# PROTOCOL TEXT: yeast display, Sf9 membrane polyspecificity reagent, FACS + sequencing; frameworks hold sequencing errors
MEASUREMENT TYPE: polyreactivity (PSR sort gate)

Recorded results for 5 sequences are shown here.
# RESIDUES, RESULT
records = [
    ("QVQLVESGGGLVQAGGSLRLSCADSGSTFYRNAMGWYRQAPGKERELVASINNRGSTYYADSVKGRFTISRDNAKNTVYLQMNRLKPEDTAVYYFAATESWDYDYWGQGTQVTVSS", "low polyreactivity"),
    ("QVQLVESGGGLVQAGGSLRLSCAASGITFGSYAMGWYRHAPGKERELVAAIRWRGGNTYYADSVKGRFTISRDNAKNTVYLQMNSLKPEDTAVYSCAARRYGYRYDQPYYNDYWGQGTQVTVSS", "low polyreactivity"),
    ("QVQLVESGGGLVQAGGSLRLSCAASGFTFDIYGMGWYRQAPGKERELVASITSRSARTYYADSVKGRFTISRYNAKNTVYLQMNSLKPEDTAVYYCAADTTIKRKYLAIRGYWGQGTQVTVSS", "high polyreactivity"),
    ("QVQLVESGGGLVQAGGSLRLSCAASGFTFSCYAMGWYRQAPGKEREFVAAISRRGAITSYADSVKGRFTISRDNAKNTVYLQMNSLKPEDTAVYYCNARYPHYYYSAYNYWGQGSQVTVSS", "high polyreactivity"),
    ("QVQLVESGGGLVQAGGSLRLSCAASGSIFRPNAMGWYRQAPGKERELVAAITWSGDSTYYADSVKGRFTISRDNAKNTVYLQMNSLKPEDTAVYYCAKYSLVFYISLYGYWGQGTQVTVSS", "low polyreactivity"),
]

Asked: # get_value(readout='polyreactivity (PSR sort gate)', item= QVQLVESGGGLVQAGGSLRLSCAASGSTFINYARGWYSQAPGKERELVAVITSDDGSTYDADSVKGRFTISRDNAKNTVYLQMNSLKPEDTAVYYCAAYYYDQRYRPGPWYDYWGQGTQVTVSS )
Given back: low polyreactivity

Asked: # get_value(readout='polyreactivity (PSR sort gate)', item= QVQLVESGGGLVQAGGSLRLSCAASGSSFAKYAMGWYRQAPGKERELVATISWSGTSTYYADSVKGRFTISRDNAKNTVYLQMNSLKPEDTAVYYCDADTECVGVNHIYDYWGQGNQVTVSS )
Given back: low polyreactivity

Asked: # get_value(readout='polyreactivity (PSR sort gate)', item= QVQLQESCGALVQAGGTLRLSCAASGSIFEQLDMGWNRQAPGKELEFVAAIGTGSTTYYADSVKGRFSISRDNAKNTVYLQRNSLKPEDTAVYYCAVTYSVYLPFRYWGQGTQVTVSS )
Given back: high polyreactivity

Asked: # get_value(readout='polyreactivity (PSR sort gate)', item= QVQLVESGGGLVQAGGSLRLSCAASGSNFTTYSMGWYRQATGKERELVAASTSGSSTNYADSVKGRFTISRDNAKNTVYLQMNSLKPEDTAVYYCAVDREWPCYYYAMSKMYYWGQGTQVTVSS )
Given back: low polyreactivity

Asked: # get_value(readout='polyreactivity (PSR sort gate)', item= QVQLVESGGGLVQAGGSLRLSCAASGSTFGKYAMGWYRQAPGKERELVAAITTGGNTYYADSVKGRFTISRDNAKNSVYLQMNSLKPEDTAVYYCNAKRSFRVDYWGQGTQVTVSS )
Given back: low polyreactivity

Asked: # get_value(readout='polyreactivity (PSR sort gate)', item= QVQLVESGVGLVQAGGSLRLSCAASGRTFWYYGMGWYRQAPGKERELVAAISRSGGRTYYADSVKARFTISRDNAKNTVYLQMNSLKPEDTAVYYCGASYRRTFDYWGQGTQVTVSS )
Given back: high polyreactivity

----------
# PROTOCOL TEXT: yeast display, Sf9 membrane polyspecificity reagent, FACS + sequencing; frameworks hold sequencing errors
MEASUREMENT TYPE: polyreactivity (PSR sort gate)

Recorded results for 5 sequences are shown here.
# RESIDUES, polyreactivity (PSR sort gate)
records = [
    ("QVQLVESGGGLVQAGGSLRLSCAASGSIFYGYAMGWYRQATGKERELVAAITSGGSTYYADSVKGRFTISRDNAKNTVYLQMNSLKPEDTAVYYCAADYPSRYWRIDYEYWGQGTQVTVSS", "high polyreactivity"),
    ("QVQLVESGGGLVQAGGSLRLRCAASGSTFVRYAMGWYREAAGKEMELVAAISSRGGSTYYADSVKGRFTISRDNAKNTVYLQMNSLKPEDTAVYYCNAAAFINFMLYDYWGQGTQVTVSS", "high polyreactivity"),
    ("QVQLVESGGGLVQAGGSLRLNSAASGSIFYRYAMRWYRQAPGKERELVAAISSNGGRTYYADSVKGRFTISRDNSKNTVYLQMNSLKPEDTAVYYCATLPGYSMDYWGQGTQVTVSS", "high polyreactivity"),
    ("QVQLVESGGGLVQAGGSLRVSCAASGFIFHYYAMGWYRQAPGKERELVAAITYSGGSTYYADSVKGRFTISRDNAKNTVYLQMNSMKPVDTAVYYCNADSVLDLYWNMDYWGQVTQVTVSS", "low polyreactivity"),
    ("QVQLVESGGGLVQAGGSLRLSCAASGGIFTQYAMGWSRQAPWKERELVAAITRSGGTYYADSVKGRFTISRDNAKNTVYLQMNSLKPEDTAVYYCAAEWIDAYYDYDYWGQGTQVTVSS", "high polyreactivity"),
]

Asked: # get_value(readout='polyreactivity (PSR sort gate)', item= QVQLVESGGGLVQAGGSLRLSCAASGRTFRFYAMGWYRQAPGKERELVAAITGSGGSTYYADSVKGRFTISRDNAKNTVYLQMNSLKPEDTAVYYCAAQRQQRYYNPEHYNYWGQGTQVTVSS )
Given back: low polyreactivity

Asked: # get_value(readout='polyreactivity (PSR sort gate)', item= QVQLVESGGGLVQAGGSLRLSCAASGRTIWYYAMGWYRQAPGKERELVAAITNRGGSTSYADSVKVRFTISRDNVKNTVYLQMNSLKPEDTAVYYCAKENYYGGGFDYWGQGTQVTVSS )
Given back: high polyreactivity

----------
# PROTOCOL TEXT: yeast display, Sf9 membrane polyspecificity reagent, FACS + sequencing; frameworks hold sequencing errors
MEASUREMENT TYPE: polyreactivity (PSR sort gate)

Recorded results for 4 sequences are shown here.
# RESIDUES, polyreactivity (PSR sort gate)
measured = [
    ("QVQLVESGGGLVQAGCSLRLSCAASGLIFGRNVMGWYRQAPGKERELVAAISWSGGRTYYADSVKGRFTISRDNAKNTVYLQMNSLKPEDTAVYYCATDRSTRTYRSPYDYWGQGTQVTVSS", "high polyreactivity"),
    ("QVQLVESGGGLVQAGRSLRLSCAASGRIFRVNAMGWYRQAPRKERQLVAAISVRGGSTYYADSVKGRFTISRDNAKNTVYLQMNSLKPEDTAVYYCAAPLVYFTPRYDYWGQGTQVTVSS", "high polyreactivity"),
    ("QVQLVESGGGLVQAGGSLRLSCAASGSTFRNNAMGWYRQAPGKERELVAAISWIGGDTYYADSVKGRFTISRDNAKNTVYLQMNSLKPEDTAVYYCNRDFVYWPWFKFDYWGQGTQVTVSS", "low polyreactivity"),
    ("QVQLEESGGGLVQAGGSLRISCAASGITFDDYDMGWYRQAPGKERELVAAITWSGGSTYYADSVKGRFTSSRDNAKNTVYLQMNSLKPEVTAVSYCNAGSTWAYSYPVGKSDLDYWGQGTQVTVSS", "low polyreactivity"),
]

Asked: # get_value(readout='polyreactivity (PSR sort gate)', item= QVQLVESGGGLVQAGGSLRLSCAASGSTFVYNAMGWYRQAPGKERELVAAISRRGTSTYYADSVKGRFTISRDNAKNTVYLQMNSLKPEDTAVYYCAASQLSRSGQYRRDYWGQGTQVTVSS )
Given back: high polyreactivity

----------
# PROTOCOL TEXT: yeast display, Sf9 membrane polyspecificity reagent, FACS + sequencing; frameworks hold sequencing errors
MEASUREMENT TYPE: polyreactivity (PSR sort gate)

Recorded results for 5 sequences are shown here.
# RESIDUES, RESULT
data = [
    ("QVQLVESGGGLVQAGGSLRLSCAASGGIFRYYAMGWYRQAPGKERELVAAISRSGDSTYYADSVKGRFTISRDNAKNTVYLQMNSLKPEDTAVYYCAATRLYWKIFYGDGDYWGQGTQVTVSS", "high polyreactivity"),
    ("QVQLVESGGGIVQAGGSLRLSCAASGFTFIYYAMGWYRQAPGKERELVAGISSGGRTSYADSVKGRFTISRDNAKNTVYFQMNSLKPEDTAVYYCATPVSRFRRTEYGYYYWGQGTQVSVSS", "high polyreactivity"),
    ("QVQLVESGGGLVQAGGSLRLSCAASGRIIYGYAMGWYRQEPGKERELVAAITATYYGDSVKGRFTISRDNAKNTVYLQMNSLKPEDTAVYYCNAYLCPKQPLSPPDPTFEGGYWGQCTQVTVSS", "low polyreactivity"),
    ("QVQLVESGGGLVQAGGSLRLSCAASGIIFSRYAMGWYRQAPGKERELVAAISTSGGRTFYADSVKGRFTISRDYAKNTVYLQMNSLKPEDTAVYYCNAEIQRGPGRGGYNYWGQGTQVTVSS", "high polyreactivity"),
    ("QVQLVESGGGLVQAGGSLRLSCAASGRIFGIYAMGWYRQAPGKERELVAAISFIGGRTYYADSVKGRFTISRDNAKNTVYLQMNSLKPEDTAVYYCAARTVPSSRREYWGQGTQVTVSS", "high polyreactivity"),
]

Asked: # get_value(readout='polyreactivity (PSR sort gate)', item= QVQLVESGGGLVQAGGSLRLSCPASGRTFNWNAMGWYRKAPGKERELVADISIRGGSTNYADSVKGRFTISRDNAKNTVYLQMNSLKPEDTAVYYCAAEYYDSGNDYWGQGTQVTVSS )
Given back: low polyreactivity

Asked: # get_value(readout='polyreactivity (PSR sort gate)', item= QVQLVESGGGLVQAGGSLRLSCAASGFTFDDNAMGWYRQAPGKERELVATISYSDGNTYYADSVKGRFTISRDNAKNTVYLQMNSLIPEDTAVYYCAADDWAVYYIGLDYDYWGQGTQVTVSS )
Given back: low polyreactivity

Asked: # get_value(readout='polyreactivity (PSR sort gate)', item= QVQLVESCGGLVQAGGSLRLSCAASGFIFYDYDMGWYRQAPGKQRELVAAITYSGASTYYADSVKGRFTISRDNAKNTVYLQMNSLKPEDTAVFYCAAVKSRYADAVDYYYWGQGTQVTVSS )
Given back: low polyreactivity

Asked: # get_value(readout='polyreactivity (PSR sort gate)', item= QVQLVESGGGLVQAGGSLRLSCAASGITFSHNAMGWYRQAPGKERELVAAITRSGGSTYYADSVKGRFTISRDNAKNTVYLQMNCLKPEDTAVYYCATEDYYRQYGYWSLSRMDHWGQGTQVTVSS )
Given back: low polyreactivity

Asked: # get_value(readout='polyreactivity (PSR sort gate)', item= QVQHVESGGGLVQAGGSLRLSCAASVSIFYGYAMGWSRQAPGKERELVATIRFITGSTYYADSVKGRFTISRDNAKNTVYLQMNSRKPEDTAVYYCAAVYVGYYDNYDYWGQGTQVTVSS )
Given back: low polyreactivity

Asked: # get_value(readout='polyreactivity (PSR sort gate)', item= PVQLVETGGGLVQAGGSLRLSCAASGGIFTLYVLGWYRQPPGKERELVAAISRTGGSTYYADSVKARFTISRDNAKNTVYLQMNSLKPEDTAVYYCAADYRQPSAFYYWGQGTQVTVSS )
Given back: high polyreactivity
